Molecular target: CYP2B6 (Homo sapiens, UniProt P20813)
Sequence (P20813 whole entry): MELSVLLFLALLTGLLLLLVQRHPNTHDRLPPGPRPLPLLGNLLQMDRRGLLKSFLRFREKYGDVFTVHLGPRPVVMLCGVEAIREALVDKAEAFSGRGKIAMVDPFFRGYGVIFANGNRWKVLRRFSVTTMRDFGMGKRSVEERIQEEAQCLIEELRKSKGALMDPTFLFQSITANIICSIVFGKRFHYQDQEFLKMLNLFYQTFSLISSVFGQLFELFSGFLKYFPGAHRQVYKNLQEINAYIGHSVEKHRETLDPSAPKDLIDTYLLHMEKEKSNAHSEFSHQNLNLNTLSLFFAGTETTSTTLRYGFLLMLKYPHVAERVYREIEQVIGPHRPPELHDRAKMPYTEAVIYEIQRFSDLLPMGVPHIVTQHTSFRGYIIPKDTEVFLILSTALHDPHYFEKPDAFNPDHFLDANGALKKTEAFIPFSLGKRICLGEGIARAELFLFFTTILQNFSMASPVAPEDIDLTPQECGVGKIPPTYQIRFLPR
Experiment: Inactivation of C-terminal His4-tagged human CYP2B6 lacking 21 N-terminal residues assessed as decrease in enzyme catalytic activity at 100 uM for 15 mins by spectral analysis in presence of NADPH
Type: ADME
Observation Type: inhibition at 0.25 h, 100 µM
# answer = value followed by unit

Any idea what inhibition at 0.25 h, 100 µM was measured for CCC(=O)C(CC(C)N(C)C)(c1ccccc1)c1ccccc1 (racemic) ? 58%
